Form field: TGI (one value per entry).
- Test system: U251 CNS
- assay-name: NCI tumour cell line growth inhibition, 48 h
recorded-metric: TGI

INSERT INTO results (molecule, experimental_result) VALUES
  ('CN(C)CCCC12CCCCC1=Nc1ccccc12 (stereo not drawn)', '> 100 µM'),
  ('c1ccc(CCNc2ccccn2)nc1', '> 100 µM'),
  ('Cc1ncc(C(=O)Nc2ccc(CN3CCN(C)CC3)c(C(F)(F)F)c2)cc1C#Cc1cnc(N)c2ccncc12', '3.35 µM'),
  ('O=C1OCC2=C1C(c1cccc(Br)c1)c1cc3c(cc1N2CCO)CCC3 (stereo not drawn)', '1.55 µM'),
  ('CCOC(=O)Nc1ccc(C)c(NC(=O)OCC)c1', '> 100 µM'),
  ('COc1ccc(NC(=O)/C(Cc2cc(=O)oc3cc(O)ccc23)=N\NC(C)(C)C)c(OC)c1', '> 100 µM'),
  ('COc1cc2c(cc1OCCCNC(=O)c1cccc3c(=O)c4ccccc4[nH]c13)N=C[C@@H]1CCCN1C2=O', '> 48.8 µM'),
  ('Cn1c(=O)c2c(nc(Cc3ccccc3)n2CC(=O)O)n(C)c1=O', '> 100 µM'),
  ('Cc1[nH]c2ccccc2c1C(=O)/C=C/c1ccccc1O', '> 100 µM'),
  ('CC(=O)c1sc(Nc2nnc(-c3ccc(-c4nnc(Nc5nc(C)c(C(C)=O)s5)o4)cc3)o2)nc1C', '> 100 µM'),
  ('CCOC(=O)C(=[N+]=[N-])[Si](C)(C)C', '69.2 µM'),
  ('O=C1CCCC1CN1CCCC1 (stereo not drawn)', '> 56.8 µM'),
  ('CC(O)C1(CNc2cc(Cl)nc(N)n2)CCC1 (stereo not drawn)', '> 100 µM');

---

- Test system: U251 CNS
- assay-name: NCI tumour cell line growth inhibition, 48 h
Where a SMILES comes first, the peptide text is derived from it. The star is where a group is joined. Cbz = O=C(OCc1ccccc1)*
Overview of recorded TGI for various compounds
recorded-metric: TGI

INSERT INTO results (compound, recorded_metric, experimental_result) VALUES
  ('O=C(CSc1nc2ccccc2nc1-c1ccccc1)Nc1ccc(F)cc1', 'TGI', '> 100 µM'),
  ('C#C[C@]1(O)CCC2C3CCc4cc(O)ccc4C3CC[C@@]21C (stereo partly specified)', 'TGI', '17.5 µM'),
  ('Cc1cc(Cl)ccc1NC(=O)C(=O)Cc1nc2ccccc2o1', 'TGI', '> 100 µM'),
  ('CC(OC(C)(C)C)[C@H](NC(=O)OCC(Cl)(Cl)Cl)C(=O)O (stereo partly specified)', 'TGI', '> 100 µM'),
  ('Nc1c(C(=O)Nc2ccncc2)sc2nc3c(cc12)CCCCCCCC3', 'TGI', '1.73 µM'),
  ('O=C(Nc1nc(C23CC4CC(CC(C4)C2)C3)cs1)c1cc2ccc(O)cc2oc1=O', 'TGI', '28.7 µM'),
  ('COc1ccc(C(=O)/C=C/c2cc(-c3cc(OC)c(OC)c(OC)c3)n[nH]2)cc1OC', 'TGI', '2.48 µM'),
  ('CC#CCOC(=O)c1ccccc1OC(C)=O', 'TGI', '> 100 µM'),
  ('CC[C@H]1[C@@H]2C=C[C@@H]3[C@H]4C/C=C\C(=O)NCCC[C@@H]5NC(=O)/C(=C(O)/C=C/[C@@H]4C[C@@H]3[C@H]2C[C@H]1C)C5=O', 'TGI', '3.33 µM'),
  ('COc1ccc(-[n+]2nc(S(=O)(=O)O)c(/C=C/c3ccc(N(C)C)cc3)cc2C#N)cc1', 'TGI', '> 100 µM'),
  ('COC(CNC(=O)C(C)NC(=O)/C=C/c1ccccc1)OC (stereo unspecified)', 'TGI', '> 100 µM'),
  ('Cn1cc(C2=C(c3cn(CCCCO)c4ccccc34)C(=O)NC2=O)c2ccccc21', 'TGI', '> 25 µM'),
  ('[Cl][Hg][c]1cc[c]([Hg][Cl])o1', 'TGI', '2.46 µM'),
  ('C/C=C(/C)C(=O)O[C@@H]1CCN2CC[C@H](COC(=O)/C(=C/C)CO)C12 (stereo partly specified)', 'TGI', '> 100 µM'),
  ('Cc1nc2c(nc1C)-c1[nH]c3c(c1C(=O)C2=O)CCCC3=O', 'TGI', '2.92 µM'),
  ('N#C/C1=C(\N)CCSSSC1', 'TGI', '> 100 µM'),
  ('C1CN2CCN3CCN4CCN1[P+]243', 'TGI', '> 100 µM'),
  ('COc1ccc(-c2nn(-c3ccc(NC(=O)c4ccc(Cl)c(Cl)c4)cc3)cc2-c2ccncc2)cc1Cl', 'TGI', '> 50 µM'),
  ('O=c1c(/C=C/c2c(O)ccc3ccccc23)nnc2sc(-c3cccc(Br)c3)nn12', 'TGI', '> 100 µM'),
  ('N#Cc1c2ccccc2cn1-c1ccc(F)cc1', 'TGI', '> 100 µM'),
  ('Cc1ccccc1N1C(=O)C2C=CC(n3[nH]c(=O)n(Cc4ccccc4)c3=O)CC2C1=O (stereo unspecified)', 'TGI', '> 100 µM'),
  ('CCN1CCC(O)(c2ccc(OC)cc2)C(C(=O)c2ccc(OC)cc2)C1 (stereo unspecified)', 'TGI', '30.5 µM'),
  ('Cn1ccc(C(=O)NCCN(CCNC(=O)c2ccn(C)c(=O)c2O)CCNC(=O)c2cccc(=O)n2O)c(O)c1=O', 'TGI', '> 100 µM'),
  ('O=C(O)CCC(NC(=O)OCc1ccccc1)C(=O)NC(Cc1cnc[nH]1)C(=O)O (stereo not drawn) (Cbz-Glu-His-OH; configuration not given here)', 'TGI', '> 100 µM'),
  ('CCC[CH2][Sn]([Cl])([CH2]CCC)[CH2]CCC', 'TGI', '0.236 µM'),
  ('O=C(O)C(NCc1ccccc1)C(NCc1ccccc1)C(=O)O (stereo unspecified)', 'TGI', '> 100 µM');
